# target.or.system: beta-catenin (human)
# Sequence (B6V8E6 146-665 limits assumed): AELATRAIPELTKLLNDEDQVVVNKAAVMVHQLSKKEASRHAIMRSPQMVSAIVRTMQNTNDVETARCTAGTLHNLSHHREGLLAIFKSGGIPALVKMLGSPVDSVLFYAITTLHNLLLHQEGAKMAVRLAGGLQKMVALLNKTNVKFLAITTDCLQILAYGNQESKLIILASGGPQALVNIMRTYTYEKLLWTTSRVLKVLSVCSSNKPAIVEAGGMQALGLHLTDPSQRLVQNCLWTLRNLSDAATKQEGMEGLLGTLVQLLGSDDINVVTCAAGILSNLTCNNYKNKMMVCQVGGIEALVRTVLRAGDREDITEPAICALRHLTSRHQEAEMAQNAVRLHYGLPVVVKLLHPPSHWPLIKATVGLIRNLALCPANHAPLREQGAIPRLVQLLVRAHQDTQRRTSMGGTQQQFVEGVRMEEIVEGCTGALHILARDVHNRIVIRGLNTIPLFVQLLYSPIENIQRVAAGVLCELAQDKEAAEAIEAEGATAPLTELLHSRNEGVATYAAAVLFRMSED
# experiment: cell-based or functional assay
*1 amine or outer side, *2 acyl side, *3 side chain or, on linkers, in order; H or OH if unused. Bridges are numbered along the chain shown (N, C = ends). Primed or numbered codes have the meaning given here. [ ]: non-standard residue; d: D form. B5(4) = 2-amino-2-(pent-4-en-1-yl)hept-6-enoic acid, stapled through each of its two olefin groups with other olefin-containing amino acid residues, O=C(C(CCCC=[*:3])(CCCC=[*:4])N[*:1])[*:2]; PyrS2″ = (S)-3-amino-1-((pent-4-en-1-yloxy)carbonyl)pyrrolidine-3-carboxylic acid (olefin stapling residue), C=CCCCOC(=O)N1CC[C@@](N[*:1])(C(=O)[*:2])C1; PyrS2(3) = (S)-3-amino-1-((pent-4-en-1-yloxy)carbonyl)pyrrolidine-3-carboxylic acid, olefin residue, C=CCCCOC(=O)N1CC[C@@](N[*:1])(C(=O)[*:2])C1; PyrS2(5) = (S)-3-amino-1-((pent-4-en-1-yloxy)carbonyl)pyrrolidine-3-carboxylic acid, C=CCCCOC(=O)N1CC[C@@](N[*:1])(C(=O)[*:2])C1; B5(5) = 2-amino-2-(pent-4-en-1-yl)hept-6-enoic acid (two olefin arms), C=CCCCC(CCCC=C)(N[*:1])C(=O)[*:2]; B5(3) = 2-amino-2-(pent-4-en-1-yl)hept-6-enoic acid, two olefin arms, C=CCCCC(CCCC=C)(N[*:1])C(=O)[*:2]; 2F3MeF″ = aromatic residue, Cc1cccc(C[C@H](N[*:1])C(=O)[*:2])c1F; Phe(3-COOH) = N[C@@H](Cc1cccc(C(=O)O)c1)C(=O)O; 2F3MeF = Cc1cccc(C[C@H](N[*:1])C(=O)[*:2])c1F; Bta = N[C@@H](Cc1csc2ccccc12)C(=O)O; αAllylPro = C=CC[C@@]1(C(=O)O)CCCN1; tBuAla = CC(C)(C)C[C@H](N)C(=O)O; Gly(cBu) = N[C@H](C(=O)O)C1CCC1; 3Thi = N[C@@H](Cc1ccsc1)C(=O)O; PyrS2(4) = not defined here; BztA″ = aromatic residue; Orn = NCCC[C@H](N)C(=O)O; TfeGA = not defined here; AsnR = not defined here; GlnR = not defined here; PL3 = not defined here; B5 = not defined here
endpoint.name: NanoBRET Abs IC50

What value of measured NanoBRET Abs IC50 is listed for Ac-[αAllylPro]D[tBuAla][B5(4)]D[TfeGA]VAFK[PyrS2″][2F3MeF][Bta][GlnR]A-NH2 (bridge 10-14; not fully specified (bridges); reading uncertain; also: Lys*3 and GlnR*3 marked *3) [I-125] ?
> 10 µM

Which measured NanoBRET Abs IC50 value corresponds to Ac-[αAllylPro]D[tBuAla][B5]D[Phe(3-COOH)][Gly(cBu)]AFK[PyrS2″][2F3MeF″][BztA″][GlnR]LS-NH2 (bridge 10-14; not fully specified (bridges); printed as Ac-PL3-Asp-Npg-B5-Asp-3COOHF-Cbg-Ala-Phe-Lys*3-PyrS2-2F3MeF-BztA-GlnR*3-Leu-Ser-NH2; reading uncertain; also: Lys10 and GlnR14 marked *3) [I-140] ?
< 1.5 µM

Which NanoBRET Abs IC50 value belongs to Ac-[αAllylPro]DL[B5(3)]DDKAF[GlnR][PyrS2(3)][3Thi][Bta]Q-NH2 (bridge 7-10; not fully specified (bridges); printed as Ac-PL3-Asp-Leu-B5-Asp-Asp-Lys*3-Ala-Phe-GlnR*3-PyrS2-3Thi-BztA-Gln-NH2; reading uncertain) [I-7] ?
> 10 µM

What value of measured NanoBRET Abs IC50 is listed for Ac-[αAllylPro]D[tBuAla][B5(5)]D[Phe(3-COOH)]AAF[Orn][PyrS2(5)][3Thi][Bta][AsnR]-NH2 (bridge 10-14; not fully specified (bridges); printed as Ac-PL3-Asp-Npg-B5-Asp-3COOHF-Ala-Ala-Phe-Orn*3-PyrS2-3Thi-BztA-AsnR*3-NH2; reading uncertain) [I-39] ?
> 10 µM

May I ask what NanoBRET Abs IC50 has been recorded for Ac-[PL3]DL[B5]DDAAFK[PyrS2(4)][3Thi][Bta][GlnR]-NH2 (staple 1-4; bridge 10-14; not fully specified (residue 10); printed as Ac-PL3-Asp-Leu-B5-Asp-Asp-Ala-Ala-Phe-dLys*3-PyrS2-3Thi-BztA-GlnR*3-NH2; reading uncertain; also: PyrS2 tied into a staple, partner not placed) [I-1] ?
> 10 µM
